# experimental-system: OX1 (Homo sapiens, UniProt O43613)
# Construct: expressed in transfected cells; host or cells: CHO (CHO-OX1, kept under selection antibiotic)
# Sequence (O43613 whole entry): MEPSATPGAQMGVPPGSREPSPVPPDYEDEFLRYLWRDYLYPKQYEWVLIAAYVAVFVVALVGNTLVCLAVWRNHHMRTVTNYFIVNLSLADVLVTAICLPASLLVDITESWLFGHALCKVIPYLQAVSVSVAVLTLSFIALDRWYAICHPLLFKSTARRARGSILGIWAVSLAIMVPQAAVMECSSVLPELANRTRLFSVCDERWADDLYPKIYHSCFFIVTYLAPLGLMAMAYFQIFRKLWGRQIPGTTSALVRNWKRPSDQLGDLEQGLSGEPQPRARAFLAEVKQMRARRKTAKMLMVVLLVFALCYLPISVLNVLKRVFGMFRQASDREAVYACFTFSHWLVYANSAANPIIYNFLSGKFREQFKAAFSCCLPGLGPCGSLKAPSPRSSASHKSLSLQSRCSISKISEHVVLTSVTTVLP
# method-notes: Orexin receptor cell-based functional assay, [Ca2+]i by FLIPR, CHO-OX1 cells
# test-conditions: CHO-OX1 cells, [Ca2+]i by FLIPR, antagonist dose-range 0.1 nM-10 μM, EC90 of OXA; read-out: OX1
property: IC50 (nM)

compound: Cc1ccc(-n2cnc(C(F)(F)F)n2)c(C(=O)N2CC3CCCC3C2CNc2nc3cc(Cl)ccc3o2)c1 (stereo not shown)
value-observed: 2400

I = Cc1ccc(-c2ccccn2)c(C(=O)N2CCC[C@@H](C)[C@H]2CNc2ncc(C#N)cn2)c1
II = Cc1ccc(NC[C@@H]2[C@H](C)CCCN2C(=O)c2cc(C)ccc2-c2ccccn2)nc1
III = Cc1ccc(-c2ncccn2)c(C(=O)N2CCC[C@@H](C)[C@H]2CNc2ccc(Cl)cn2)n1
**Q:** Rank by IC50 (largest to smallest). Returns: the labels arranged in the requested order.
**A:** I, II, III

###

# experimental-system: CYP3A4 (Homo sapiens, UniProt P08684)
# Construct: pre-incubated with human liver microsomes and NADPH; from tissue; host or cells: human liver microsomes
# Sequence (P08684 whole entry): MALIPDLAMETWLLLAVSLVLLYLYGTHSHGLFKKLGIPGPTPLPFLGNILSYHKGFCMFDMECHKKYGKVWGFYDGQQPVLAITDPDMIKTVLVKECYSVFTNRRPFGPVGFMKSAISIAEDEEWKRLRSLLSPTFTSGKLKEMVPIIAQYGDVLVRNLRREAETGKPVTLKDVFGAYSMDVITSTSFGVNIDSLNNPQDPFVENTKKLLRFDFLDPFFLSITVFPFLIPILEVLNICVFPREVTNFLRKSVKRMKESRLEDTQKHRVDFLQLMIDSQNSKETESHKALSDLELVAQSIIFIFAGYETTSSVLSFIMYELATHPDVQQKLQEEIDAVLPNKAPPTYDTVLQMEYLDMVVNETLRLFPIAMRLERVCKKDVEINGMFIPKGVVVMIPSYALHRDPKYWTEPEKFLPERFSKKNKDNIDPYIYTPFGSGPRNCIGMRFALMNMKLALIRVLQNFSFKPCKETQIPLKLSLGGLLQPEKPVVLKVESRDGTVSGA
# method-notes: Cytochrome P450 inhibition assay (midazolam hydroxylation)
# Assay type: in vitro ADME
# test-conditions: human, human liver microsomes, probe midazolam (hydroxylation to 1′-hydroxymidazolam), 10 μM test compound, midazolam at approximately its Km
property: inhibition at 10 µM (%)

Solved entries (count: 3):
compound: Cc1ccc(-n2nccn2)c(C(=O)N2CCC[C@@H](C)[C@H]2CNc2ncccc2C)c1 [Example A99]
experimental-system: CYP3A4 (Homo sapiens, UniProt P08684)
inhibition at 10 µM [%]: 52
--
compound: Cc1ccc(-n2nccn2)c(C(=O)N2CCC[C@@H](C)[C@H]2CNc2ccc(C3(C#N)CC3)cn2)c1 [Example A140]
experimental-system: CYP3A4 (Homo sapiens, UniProt P08684)
inhibition at 10 µM [%]: 64
--
compound: Cc1cccc(C(=O)N2CCC[C@@H](C)[C@H]2CNc2ncc(Cl)cn2)c1-n1nccn1 [Example A268]
experimental-system: CYP3A4 (Homo sapiens, UniProt P08684)
inhibition at 10 µM [%]: 60

P = Cc1ccc(-n2nccn2)c(C(=O)N2CCC[C@@H](C)[C@H]2CNc2ccc(F)cn2)c1 [Example A47]
Q = COc1ccnc(-c2ccc(C)cc2C(=O)N2CCC[C@@H](C)[C@H]2CNc2ccc(C(F)(F)F)cn2)n1 [Example A21]
**Q:** Lab log: flag the item ( P or Q ) with the smaller inhibition at 10 µM figure. To answer, give the label that identifies your chosen option.
**A:** P
(P: 56%, Q: 89%)

1 = Cc1ccc(-c2cnn(C)c2)c(C(=O)N2CCC[C@@H](C)[C@H]2CNc2cccc(C)n2)c1 [Example A87]
2 = C[C@@H]1CCCN(C(=O)c2ccccc2-c2ncccn2)[C@@H]1CNc1ncc(C(F)(F)F)cn1 [Example A317]
**Q:** Lab log: flag the item ( 1 or 2 ) with the smaller inhibition at 10 µM figure. To answer, give the label that identifies your chosen option.
**A:** 2

P = Cc1cccc(-c2ncccn2)c1C(=O)N1CCC[C@@H](C)[C@H]1CNc1ncc(C(F)(F)F)cn1 [Example A307]
Q = C[C@@H]1CCCN(C(=O)c2cc(F)ccc2-c2ncccn2)[C@@H]1CNc1ccc(Cl)cn1 [Example A229]
**Q:** Lab log: flag the item ( P or Q ) with the smaller inhibition at 10 µM figure. To answer, give the label that identifies your chosen option.
**A:** P

###

# experimental-system: OX1 (Homo sapiens)
# Construct: expressed in transfected cells; host or cells: CHO (CHO-OX1, kept under selection antibiotic)
# method-notes: Orexin receptor cell-based functional assay, [Ca2+]i by FLIPR, CHO-OX1 cells
# test-conditions: CHO-OX1 cells, [Ca2+]i by FLIPR, antagonist dose-range 0.1 nM-10 μM, EC90 of OXA; read-out: OX1
pIC50: −log10 of the molar value.
property: pIC50

Solved entries (count: 8):
given-smiles: Cc1ccc(F)c(C(=O)N2CCC[C@@H](C)[C@H]2CNc2ccc(C(F)(F)F)cn2)c1-n1nccn1
pIC50: 8.40
--
given-smiles: Cc1ccc(-n2nccn2)c(C(=O)N2CCC[C@@H](C)[C@H]2CNc2ncc3cc(C)ccc3n2)c1
pIC50: 7.96
--
given-smiles: Cc1ccc(-c2cnn(C)c2)c(C(=O)N2CCC[C@@H](C)[C@H]2CNc2ncccc2C)c1
pIC50: 5.89
--
given-smiles: Cc1c(F)ccc(C(=O)N2CCC[C@@H](C)[C@H]2CNc2ccc(C(F)(F)F)cn2)c1-n1nccn1
pIC50: 8.70
--
given-smiles: C[C@@H]1CCCN(C(=O)c2c(F)cccc2-n2nccn2)[C@@H]1CNc1ccc(Cl)cn1
pIC50: 8.30
--
given-smiles: C[C@@H]1CCCN(C(=O)c2cc(F)c(F)cc2-c2ncccn2)[C@@H]1CNc1ncc(Cl)cn1
pIC50: 5.89
--
given-smiles: Cc1ccc(-c2ncccn2)c(C(=O)N2CCC[C@@H](C)[C@H]2CNc2ncc(F)cc2F)c1
pIC50: 6.85
--
given-smiles: Cc1ccc(-n2nccn2)c(C(=O)N2CCC[C@@H](C)[C@H]2CNc2ncc3cc(Br)ccc3n2)c1
pIC50: 7.02

I = Cc1ccc(-c2cnccn2)c(C(=O)N2CCC[C@@H](C)[C@H]2CNc2ccc(C(F)(F)F)cn2)c1
II = C[C@@H]1CCCN(C(=O)c2ccc(F)cc2-c2ncccn2)[C@@H]1CNc1ncc(C(F)(F)F)cn1
**Q:** Lab log: flag the item ( I or II ) with the smaller pIC50 figure. To answer, give the label that identifies your chosen option.
**A:** II
(II: 7.92, I: 8.40)

P = C[C@@H]1CCCN(C(=O)c2cccc(F)c2-c2ncccn2)[C@@H]1CNc1ncc(C(F)(F)F)cn1
Q = C[C@@H]1CCCN(C(=O)c2ccc(F)cc2-c2ncccn2)[C@@H]1CNc1ccc(C(F)(F)F)cn1
**Q:** Which item exceeds the other in pIC50, P or Q ? To answer, give the label that identifies your chosen option.
**A:** P

I = Cc1ccc(-n2nccn2)c(C(=O)N2CCC[C@@H](C)[C@H]2CNc2ccc(C(F)(F)F)cn2)c1F
II = C[C@@H]1CCCN(C(=O)c2ccccc2-n2nccn2)[C@@H]1CNc1nc2cc(Cl)ccc2o1
**Q:** Lab log: flag the item ( I or II ) with the smaller pIC50 figure. To answer, give the label that identifies your chosen option.
**A:** II
(II: 5.59, I: 8.15)

###

# experimental-system: CYP3A4 (Homo sapiens, UniProt P08684)
# Construct: pre-incubated with human liver microsomes and NADPH; from tissue; host or cells: human liver microsomes
# method-notes: Cytochrome P450 inhibition assay (midazolam hydroxylation)
# Assay type: in vitro ADME
# test-conditions: human, human liver microsomes, probe midazolam (hydroxylation to 1′-hydroxymidazolam), 10 μM test compound, midazolam at approximately its Km
property: inhibition at 10 µM (%)

Solved entries (count: 10):
given-smiles: Cc1ccc(-c2ccccn2)c(C(=O)N2CCC[C@@H](C)[C@H]2CNc2ncc(C(F)(F)F)cn2)n1
inhibition at 10 µM (%): 45
--
given-smiles: Cc1ccc(-c2ccccn2)c(C(=O)N2CCC[C@@H](C)[C@H]2CNc2nnc(C(F)(F)F)s2)c1
inhibition at 10 µM (%): 86
--
given-smiles: Cc1ccc(-n2nccn2)c(C(=O)N2CCC[C@@H](C)[C@H]2CNc2nc3ccc(Cl)cc3o2)c1
inhibition at 10 µM (%): 80
--
given-smiles: Cc1cc(F)cc(C(=O)N2CCC[C@@H](C)[C@H]2CNc2ccc(C(F)(F)F)cn2)c1-c1ncccn1
inhibition at 10 µM (%): 83
--
given-smiles: Cc1ccc(-n2nccn2)c(C(=O)N2CCC[C@@H](C)[C@H]2CNc2ncc3c(C)cccc3n2)c1
inhibition at 10 µM (%): 69
--
given-smiles: Cc1ccc(-c2nn[nH]n2)c(C(=O)N2CCC[C@@H](C)[C@H]2CNc2ccc(C(F)(F)F)cn2)c1
inhibition at 10 µM (%): 75
--
given-smiles: Cc1ccc(-n2cc(C)cn2)c(C(=O)N2CCC[C@@H](C)[C@H]2CNc2ccc(C(F)(F)F)cn2)c1
inhibition at 10 µM (%): 91
--
given-smiles: Cc1ccc(-n2cc(C)nn2)c(C(=O)N2CCC[C@@H](C)[C@H]2CNc2ccc(C(F)(F)F)cn2)c1
inhibition at 10 µM (%): 98
--
given-smiles: COc1ncc(-c2ccc(C)cc2C(=O)N2CCC[C@@H](C)[C@H]2CNc2ccc(C(F)(F)F)cn2)cn1
inhibition at 10 µM (%): 96
--
given-smiles: Cc1ccc(-n2cccn2)c(C(=O)N2CCC[C@@H](C)[C@H]2CNc2ccc(Cl)cn2)n1
inhibition at 10 µM (%): 59

A = Cc1ccc(-c2ncccn2)c(C(=O)N2CCC[C@@H](C)[C@H]2CNc2ccc(Cl)cn2)c1
B = Cc1ccc(-n2nccn2)c(C(=O)N2CCC[C@@H](C)[C@H]2CNc2ccc(C(F)(F)F)nn2)n1
**Q:** Lab log: flag the item ( A or B ) with the smaller inhibition at 10 µM figure. To answer, give the label that identifies your chosen option.
**A:** B
(B: 37%, A: 75%)
